# System: mouse plasma enzymes
# procedure.details: Stability of AMC-peptides in mouse plasma (HPLC, 350 nm)
# Format: in vitro ADME
# settings: up to 6 hrs
# Experimental: Peptide linker stock solutions (10 mM in DMSO) are diluted to 1 mM and then incubated with mouse plasma; aliquots are removed, blood proteins are precipitated with cold acetonitrile, pelleted with centrifugation, and the supernatant analyzed by HPLC. […] The stability of the analyte peptide was determined by the comparing the area-under-curve (AUC) of analyte peaks at 350 nm following formula: […]
Where a SMILES comes first, the peptide text is derived from it.
value.type: stability in mouse plasma

compound | value.type | recorded.result
CCCC[C@H](NC(=O)[C@@H](NC(=O)[C@@H]1CCCN1C(=O)[C@H](CO)NC(=O)CCNC(C)=O)C(C)C)C(=O)Nc1ccc2c(C)cc(=O)oc2c1 [AN, Ac-A′SPVnL-AMC] (HELM PEPTIDE1{[ac].[bAla].S.P.V.[Nle].[Cc1cc(=O)oc2cc(N[*:1])ccc12]}$$$$V2.0) | stability in mouse plasma | metabolized quickly
CCCCC(NC(=O)[C@@H](NC(=O)CCNC(C)=O)C(C)C)C(=O)Nc1ccc2c(C)cc(=O)oc2c1 (some centres unmarked) [AM, Ac-A′VnL-AMC] (HELM PEPTIDE1{[ac].[bAla].V.[CCCCC(N[*:1])C(=O)[*:2]].[Cc1cc(=O)oc2cc(N[*:1])ccc12]}$$$$V2.0) | stability in mouse plasma | metabolized quickly
